Catalogue of inhibition values
Molecular target: MAPK15 (human)
Experiment: radiometric filter-binding kinase assay
Conditions: compound 100.0 µM; ATP 5 µM
Put your answer as a value accompanied by its unit after it.

Answered examples (4):
O=C(Nc1cnc2[nH]ccn2c1=O)c1ccccc1: 7%
CC(=O)Nc1nc2cnc(-c3c(C)cccc3C)cn2n1: 7%
COc1ccc(NC(=S)Nc2cnc3[nH]cnn3c2=O)cn1: 8%
COc1ccc(-c2cc3c(=O)[nH]cnc3s2)cc1OC: 18%

Now let's try a different one.
Memo: Cc1cccc(C)c1-c1cn2nc(N)nc2cn1 , reported inhibition: 25%

----------
Molecular target: PKN2 (human) (UniProt Q16513)
Sequence (Q16513 whole entry, looked up): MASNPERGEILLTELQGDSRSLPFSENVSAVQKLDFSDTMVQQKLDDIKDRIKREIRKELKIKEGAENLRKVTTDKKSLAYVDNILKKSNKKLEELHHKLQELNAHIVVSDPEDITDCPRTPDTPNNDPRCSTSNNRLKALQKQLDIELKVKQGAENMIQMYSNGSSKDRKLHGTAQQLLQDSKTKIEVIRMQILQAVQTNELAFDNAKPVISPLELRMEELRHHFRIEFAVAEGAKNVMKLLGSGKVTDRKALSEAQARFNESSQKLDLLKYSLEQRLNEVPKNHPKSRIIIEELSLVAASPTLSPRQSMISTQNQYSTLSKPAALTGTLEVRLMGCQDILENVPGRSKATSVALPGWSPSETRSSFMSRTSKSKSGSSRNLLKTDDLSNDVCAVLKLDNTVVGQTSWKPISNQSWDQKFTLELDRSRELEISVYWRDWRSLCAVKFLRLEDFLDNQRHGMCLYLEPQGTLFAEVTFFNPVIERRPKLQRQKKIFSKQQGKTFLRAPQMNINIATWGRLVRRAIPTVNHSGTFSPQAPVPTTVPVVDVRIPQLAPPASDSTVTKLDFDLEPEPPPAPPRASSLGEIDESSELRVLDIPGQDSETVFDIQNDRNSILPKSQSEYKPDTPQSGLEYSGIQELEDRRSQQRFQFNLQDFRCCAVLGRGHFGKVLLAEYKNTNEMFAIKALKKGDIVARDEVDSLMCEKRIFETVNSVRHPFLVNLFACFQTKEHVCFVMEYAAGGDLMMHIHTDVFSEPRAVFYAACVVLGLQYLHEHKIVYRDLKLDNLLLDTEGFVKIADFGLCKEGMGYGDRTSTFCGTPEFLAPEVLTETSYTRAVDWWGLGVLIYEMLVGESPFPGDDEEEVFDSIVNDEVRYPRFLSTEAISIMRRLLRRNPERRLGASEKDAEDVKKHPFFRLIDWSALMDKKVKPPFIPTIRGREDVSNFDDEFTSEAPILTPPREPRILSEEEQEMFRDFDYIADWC
Assay: radiometric filter-binding kinase assay
Settings: compound 100.0 µM; ATP 5 µM
Catalogue of inhibition values
Field format: number, assumed %, no unit text.

Nc1cnc2c(-c3c(F)cccc3F)cccn2c1=O: 73
CC(=O)Nc1nc2cnc(-c3c(C)cccc3C)cn2n1: 0
CC1CN(c2nc3ccccn3c(=O)c2N)CC(C)O1 (centres undefined): 0

Now let's try a different one.
Result for CC(=O)Nc1nc2cnc(-c3ccccc3)cn2n1 , tested on PKN2 (human) (UniProt Q16513), inhibition: 13

----------
Target: UniProt:P54762
Sequence (P54762 whole entry, looked up): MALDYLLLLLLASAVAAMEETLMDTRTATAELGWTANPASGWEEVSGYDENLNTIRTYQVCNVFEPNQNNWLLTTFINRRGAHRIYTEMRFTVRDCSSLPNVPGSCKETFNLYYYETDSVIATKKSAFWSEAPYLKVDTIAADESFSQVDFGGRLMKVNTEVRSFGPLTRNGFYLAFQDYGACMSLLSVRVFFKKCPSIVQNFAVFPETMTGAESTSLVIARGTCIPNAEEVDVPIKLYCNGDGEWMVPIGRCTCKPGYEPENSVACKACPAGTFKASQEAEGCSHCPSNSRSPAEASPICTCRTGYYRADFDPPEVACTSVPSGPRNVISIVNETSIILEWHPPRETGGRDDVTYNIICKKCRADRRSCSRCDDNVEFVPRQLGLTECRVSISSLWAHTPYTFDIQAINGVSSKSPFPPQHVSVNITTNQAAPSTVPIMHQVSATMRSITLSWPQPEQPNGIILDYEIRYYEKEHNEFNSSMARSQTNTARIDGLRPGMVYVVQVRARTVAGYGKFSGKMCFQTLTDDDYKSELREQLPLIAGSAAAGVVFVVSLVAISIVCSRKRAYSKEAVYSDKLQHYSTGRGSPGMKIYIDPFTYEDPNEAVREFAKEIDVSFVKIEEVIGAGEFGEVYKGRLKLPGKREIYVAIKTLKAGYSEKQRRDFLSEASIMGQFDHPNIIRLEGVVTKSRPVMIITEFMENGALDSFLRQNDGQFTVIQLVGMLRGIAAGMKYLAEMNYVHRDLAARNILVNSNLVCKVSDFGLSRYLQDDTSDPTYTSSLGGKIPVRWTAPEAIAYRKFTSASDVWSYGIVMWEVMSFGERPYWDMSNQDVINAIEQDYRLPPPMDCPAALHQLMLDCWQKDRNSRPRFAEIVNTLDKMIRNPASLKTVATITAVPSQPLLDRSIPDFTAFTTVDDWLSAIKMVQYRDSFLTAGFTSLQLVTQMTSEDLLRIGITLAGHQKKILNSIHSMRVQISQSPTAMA
Test: radiometric filter-binding kinase assay
Details: compound 100.0 µM; ATP 20 µM
Catalogue of inhibition values
Field format: number, assumed %, no unit text.

Memo: Cc1cccc(C)c1-c1cn2nc(N)nc2cn1 , reported inhibition: 22

Memo: CC(=O)Nc1nc2cnc(-c3c(C)cccc3C)cn2n1 , reported inhibition: 0

Memo: CC(=O)Nc1nc2cnc(-c3ccccc3)cn2n1 , reported inhibition: 22

----------
Biological target: DYRK3 (human) (UniProt O43781)
Sequence (O43781 whole entry, looked up): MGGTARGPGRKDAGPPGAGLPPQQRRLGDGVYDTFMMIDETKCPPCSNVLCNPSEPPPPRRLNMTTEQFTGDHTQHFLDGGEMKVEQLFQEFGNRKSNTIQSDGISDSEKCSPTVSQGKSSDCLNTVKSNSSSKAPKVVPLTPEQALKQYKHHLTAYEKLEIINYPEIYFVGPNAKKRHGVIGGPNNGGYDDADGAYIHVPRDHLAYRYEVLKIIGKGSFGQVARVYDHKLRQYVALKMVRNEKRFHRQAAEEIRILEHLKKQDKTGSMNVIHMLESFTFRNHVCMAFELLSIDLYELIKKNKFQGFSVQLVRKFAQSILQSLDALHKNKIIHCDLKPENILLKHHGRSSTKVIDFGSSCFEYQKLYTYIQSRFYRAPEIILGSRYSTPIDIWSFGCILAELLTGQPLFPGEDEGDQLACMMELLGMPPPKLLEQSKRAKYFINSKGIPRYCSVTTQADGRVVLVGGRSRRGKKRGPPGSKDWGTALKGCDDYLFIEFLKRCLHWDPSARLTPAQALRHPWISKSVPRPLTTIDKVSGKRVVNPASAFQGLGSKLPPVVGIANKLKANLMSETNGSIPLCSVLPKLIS
Experiment: radiometric filter-binding kinase assay
Conditions: compound 100.0 µM; ATP 5 µM
Catalogue of inhibition values
Field format: number, assumed %, no unit text.

Answered examples (3):
CC(C)(C)Nc1c(C2CC2)nc2[nH]cnn12: 7
O=C(c1cccc(-c2cc3c(=O)[nH]cnc3s2)c1)N1CCOCC1: 47
CC(=O)Nc1nc2cnc(-c3c(C)cccc3C)cn2n1: 12

Memo: CC(=O)Nc1nc2cnc(-c3ccccc3)cn2n1 , reported inhibition: 69

----------
Biological target: PRKAA1 PRKAB2 PRKAG1 (human) (UniProt O43741+Q13131+P54619)
Sequence (O43741 whole entry, looked up): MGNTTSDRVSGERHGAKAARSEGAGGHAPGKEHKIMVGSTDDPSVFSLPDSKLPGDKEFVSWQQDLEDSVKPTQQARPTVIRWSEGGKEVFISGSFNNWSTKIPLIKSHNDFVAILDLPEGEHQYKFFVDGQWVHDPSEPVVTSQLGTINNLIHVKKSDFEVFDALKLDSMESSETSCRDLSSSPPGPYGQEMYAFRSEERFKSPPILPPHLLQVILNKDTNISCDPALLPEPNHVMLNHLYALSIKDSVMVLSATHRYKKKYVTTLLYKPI
Sequence (P54619 whole entry, looked up): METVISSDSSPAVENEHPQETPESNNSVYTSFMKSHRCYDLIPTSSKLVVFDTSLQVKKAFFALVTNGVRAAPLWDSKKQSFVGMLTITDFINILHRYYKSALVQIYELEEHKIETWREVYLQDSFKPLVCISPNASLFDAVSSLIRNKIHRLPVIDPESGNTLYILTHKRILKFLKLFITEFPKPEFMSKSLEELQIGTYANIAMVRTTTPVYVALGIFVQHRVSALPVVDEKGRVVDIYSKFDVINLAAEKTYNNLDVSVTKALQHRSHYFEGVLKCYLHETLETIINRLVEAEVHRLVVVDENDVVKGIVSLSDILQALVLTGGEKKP
Sequence (Q13131 whole entry, looked up): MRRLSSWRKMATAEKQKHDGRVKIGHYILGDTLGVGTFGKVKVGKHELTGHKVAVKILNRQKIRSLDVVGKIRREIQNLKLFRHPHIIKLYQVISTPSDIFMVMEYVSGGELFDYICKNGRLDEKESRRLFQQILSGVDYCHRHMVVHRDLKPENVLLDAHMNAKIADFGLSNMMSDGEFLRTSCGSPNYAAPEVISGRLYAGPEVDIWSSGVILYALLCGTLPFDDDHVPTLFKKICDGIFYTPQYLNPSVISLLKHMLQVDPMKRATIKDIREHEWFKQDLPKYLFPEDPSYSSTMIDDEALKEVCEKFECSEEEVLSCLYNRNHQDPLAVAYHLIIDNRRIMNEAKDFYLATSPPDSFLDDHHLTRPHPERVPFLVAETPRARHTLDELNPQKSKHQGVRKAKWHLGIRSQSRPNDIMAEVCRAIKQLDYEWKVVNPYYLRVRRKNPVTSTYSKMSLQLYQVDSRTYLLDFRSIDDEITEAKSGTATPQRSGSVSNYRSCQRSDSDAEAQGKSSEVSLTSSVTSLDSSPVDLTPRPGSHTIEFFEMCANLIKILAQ
Assay: radiometric filter-binding kinase assay
Conditions: compound 100.0 µM; ATP 20 µM
Recorded Metric: inhibition (%)
Field format: number, assumed %, no unit text.

Answered examples (4):
CC(C)(C)Nc1c(C2CC2)nc2[nH]cnn12: 5
COc1ccc(-c2cc3c(=O)[nH]cnc3s2)cc1OC: 0
COc1ccc(NC(=S)Nc2cnc3[nH]cnn3c2=O)cn1: 0
Nc1nc2cnc(-c3ccccc3)cn2n1: 7

Now let's try a different one.
Memo: O=C(Nc1cnc2[nH]cnn2c1=O)c1ccccc1 , reported inhibition: 0

----------
Catalogue of inhibition values
Target: PRKCG (human)
Assay: radiometric filter-binding kinase assay
Conditions: compound 100.0 µM; ATP 20 µM
Field format: number, assumed %, no unit text.

Answered examples (2):
Nc1cnc2c(-c3c(F)cccc3F)cccn2c1=O: 25
CC(=O)Nc1nc2cnc(-c3c(C)cccc3C)cn2n1: 12

Result for COc1ccc(-c2cc3c(=O)[nH]cnc3s2)cc1OC , tested on PRKCG (human), inhibition: 0

Result for O=c1cc(-c2ccccc2F)nc2[nH]ccn12 , tested on PRKCG (human), inhibition: 7

Result for COc1ccc(NC(=S)Nc2cnc3[nH]cnn3c2=O)cn1 , tested on PRKCG (human), inhibition: 0

Result for CC(C)(C)Nc1c(COCc2ccccc2)nc2[nH]cnn12 , tested on PRKCG (human), inhibition: 8

Result for Nc1nc2cnc(-c3ccccc3)cn2n1 , tested on PRKCG (human), inhibition: 24

Result for O=C(Nc1cnc2[nH]cnn2c1=O)c1ccccc1 , tested on PRKCG (human), inhibition: 2

Result for CC1CN(c2nc3ccccn3c(=O)c2N)CC(C)O1 (centres undefined) , tested on PRKCG (human), inhibition: 0
